# System: HT-22
# EXPERIMENTAL DETAILS: Modulation of CLK1 pre-mRNA splicing in mouse HT-22 cells assessed as inclusion of CLK1 exon 4 by measuring change in threshold cycle at 10 uM measured after 4 hrs by real time PCR analysis
# Format: cell-based
# CONDITION INFO: filed as modulator
Entries and their deltaCT values follow.
METRIC: deltaCT

In [3]: df
Out[3]:
                                    molecule  target_entity   metric    val
 0  O=C1NC(Nc2ccccc2)=N/C1=C\c1ccc2c(c1)OCO2          HT-22  deltaCT   8.18
 1  CCSC1NC(=O)/C(=C/c2ccc3c(c2)OCO3)N1C (centres undefined)          HT-22  deltaCT   0.23
 2   O=C1NC(N2CCOCC2)=N/C1=C\c1ccc2c(c1)OCO2          HT-22  deltaCT   0.63
 3      CCSC1=N/C(=C\c2ccc3c(c2)OCO3)C(=O)N1          HT-22  deltaCT   0.57
 4  O=C1NC(N2CCC(N3CCCCC3)CC2)=N/C1=C\c1ccc2c(c1)OCO2          HT-22  deltaCT   0.42
 5  C/C(=C1/N=C(Nc2ccccc2)NC1=O)c1ccc2c(c1)OCO2          HT-22  deltaCT   0.38
 6  CCCNC1=N/C(=C\c2ccc3c(c2)OCO3)C(=O)N1CCC          HT-22  deltaCT  -0.32
 7    CCCSC1=N/C(=C\c2ccc3c(c2)OCO3)C(=O)N1C          HT-22  deltaCT  -1.36
 8   O=C1NC(N2CCCCC2)=N/C1=C\c1ccc2c(c1)OCO2          HT-22  deltaCT   0.68
 9    O=C1NC(N2CCCC2)=N/C1=C\c1ccc2c(c1)OCO2          HT-22  deltaCT   0.05
10     CCCSC1=N/C(=C\c2ccc3c(c2)OCO3)C(=O)N1          HT-22  deltaCT   2.48
11  CN1CCN(c2ccc(NC3=N/C(=C\c4ccc5c(c4)OCO5)C(=O)N3)cc2)CC1          HT-22  deltaCT   7.48
12  O=C1OC(Nc2ccccc2)=N/C1=C\c1ccc2c(c1)OCO2          HT-22  deltaCT  -0.18
13  CCCNC1=N/C(=C\c2ccc3c(c2)OCO3)C(=O)N1c1ccccc1          HT-22  deltaCT  -0.05
14  Cc1ccc(NC2=N/C(=C\c3ccc4c(c3)OCO4)C(=O)N2)cc1          HT-22  deltaCT   2.29
15     CCCNC1=N/C(=C\c2ccc3c(c2)OCO3)C(=O)N1          HT-22  deltaCT   5.11
16  O=C1NC(NC2CCNCC2)=N/C1=C\c1ccc2c(c1)OCO2          HT-22  deltaCT   0.36
17  O=C1N=C(Nc2ccccc2)S/C1=C\c1ccc2c(c1)OCO2          HT-22  deltaCT  -0.09
18       CSC1=N/C(=C\c2ccc3c(c2)OCO3)C(=O)N1          HT-22  deltaCT   0.13
19  COc1ccc(NC2=N/C(=C\c3ccc4c(c3)OCO4)C(=O)N2)cc1          HT-22  deltaCT    0.5
20       CNC1=N/C(=C\c2ccc3c(c2)OCO3)C(=O)N1          HT-22  deltaCT      1
21  O=C1NC(Nc2ccc(O)cc2)=N/C1=C\c1ccc2c(c1)OCO2          HT-22  deltaCT   7.91
22    CCCNC1=N/C(=C\c2ccc3c(c2)OCO3)C(=O)N1C          HT-22  deltaCT   3.72
23               Cn1cc(Cc2ccc3c(c2)OCO3)nc1N          HT-22  deltaCT   0.38
24     CCSC1=N/C(=C\c2ccc3c(c2)OCO3)C(=O)N1C          HT-22  deltaCT  -0.99
25      CCNC1=N/C(=C\c2ccc3c(c2)OCO3)C(=O)N1          HT-22  deltaCT   2.64
26        NC1=N/C(=C\c2ccc3c(c2)OCO3)C(=O)N1          HT-22  deltaCT   3.02
27  CN1C(=O)/C(=C/c2ccc3c(c2)OCO3)N=C1Nc1ccccc1          HT-22  deltaCT   4.42
28       CN1C(=O)/C(=C/c2ccc3c(c2)OCO3)N=C1N          HT-22  deltaCT   1.14
